# EXPERIMENT NOTES: DAPI mCherry counterscreen qHTS for Zika virus inhibitors; further: nearly all actives have a fitted effect of over 55% in size; further: potency means the concentration at half of the fitted maximal effect
# MEASUREMENT CONDITIONS: Vero cells, DAPI nuclear count cytotoxicity, imaging 48-72 h, infected with Zika reporter virus, MOI 1; series mostly up to 32.6 µM
Inconclusive results are not listed. The source made the active and inactive calls. The call rests on the fitted dose curve; in most records, active means well fitted cell-killing curve with a large enough effect; inconclusive means small, poorly fitted or top-dose-only effect; inactive means flat fitted curve, though single readings scatter.
MEASURED ENDPOINT: Potency

As a guide, the following entries are already answered.
CC1(C(=O)O)NCCc2cc(O)c(O)cc21 (stereo not drawn)
inactive
O=S(=O)(Nc1ccc(Cl)cc1)c1ccc(NS(=O)(=O)c2ccc3c(c2)OCCO3)cc1
31.6 µM (active)
Cc1cccc(C(=O)Nc2ccc(C(=O)OCc3cc(=O)n4nc(C5CC5)sc4n3)cc2)c1
15.8 µM (active)
CCN(Cc1cccc(S(=O)(=O)O)c1)c1ccc(C(=C2C=CC(=[N+](CC)Cc3cccc(S(=O)(=O)O)c3)C=C2)c2ccc(O)cc2S(=O)(=O)O)cc1
inactive
COc1cc(/C=C(\C#N)C(=O)Nc2nnc(C(F)(F)F)s2)ccc1OCc1ccc(C(F)(F)F)cc1C(F)(F)F
7.08 µM (active)

Bench note: what Potency did "COc1cc(Nc2nc3ccccc3nc2NS(=O)(=O)c2cccc(NC(=O)c3ccc(C)c(OC)c3)c2)cc(OC)c1" show?
4.47 µM (active)

Bench note: what Potency did CCC(C)CCCCC(=O)NC(CCNCS(=O)(=O)O)C(=O)NC(C(=O)NC(CCNCS(=O)(=O)O)C(=O)NC1CCNC(=O)C(C(C)O)NC(=O)C(CCNCS(=O)(=O)O)NC(=O)C(CCNCS(=O)(=O)O)NC(=O)C(CC(C)C)NC(=O)C(CC(C)C)NC(=O)C(CCNCS(=O)(=O)O)NC1=O)C(C)O (stereo not drawn) show?
inactive

Bench note: what Potency did "COc1ccc(/C=C(\C#N)c2nc(-c3cc4c(ccc5ccccc54)oc3=O)cs2)cc1O" show?
1 µM (active)
